# Test system: IGROV1 ovarian
# ASSAY INFO: NCI tumour cell line growth inhibition, 48 h
ASSAY ENDPOINT: TGI

> print(dat)
                                    molecule   reading
 1  Fc1ccc(C2SCc3nc4ccccc4n32)cc1F (stereo unspecified)  > 100 µM
 2  NCCCNc1nc2ccc(Cl)cc2c2c(=O)c3cc(F)ccc3sc12    5.1 µM
 3  Cc1c2ccccc2c(C2C3C(=O)N(c4cccc5ccccc45)C(=O)C3ON2Cc2ccc(CC(N)=O)cc2)c2ccccc12 (stereo unspecified)   > 50 µM
 4  CCC(C)CC(C)C(=O)c1c(O)ccn(O)c1=O (stereo unspecified)   28.1 µM
 5  [N-]=[N+]=CC(=O)OCC1NC(=O)C(COC(=O)C=[N+]=[N-])NC1=O (stereo unspecified)  > 100 µM
 6  Cc1ccc(NC(=O)/C(=N\NC(N)=S)C(C#N)c2ccccc2C)cc1C (stereo unspecified)  > 100 µM
 7  O=C1CCCC2=C1CC1=C(CCCC1=O)N2c1ccc([N+](=O)[O-])cc1  > 100 µM
 8  NC(=S)N/N=C(\CCC(=O)Nc1ccccc1[N+](=O)[O-])CC(=O)c1ccco1  > 100 µM
 9  O=C1c2cccnc2C(=O)c2c1c(C(=O)OCCc1ccccn1)c1ccccn21   4.73 µM
10  CCCCCCCCCCCCCCCC(=O)Nc1ccn(C2CCC(COP(=O)(O)OCC3OC(n4cc(F)c(=O)[nH]c4=O)CC3OC(C)=O)O2)c(=O)n1 (stereo unspecified)  > 100 µM
11            O=C(O)c1ccc(Oc2nc3ccccc3s2)cc1  > 100 µM

* * *

# Tested on: HCC-2998 colon
# ASSAY INFO: NCI tumour cell line growth inhibition, 48 h
ASSAY ENDPOINT: TGI

> print(dat)
                                   compound    reading
1  COc1ccc2c(c1)-c1nc(=O)n(CCCN(C)C)c3ccc([N+](=O)[O-])c(c13)N2    17.7 µM
2  Nc1nc(Br)nc2ncn(C3CC(O)C(CO)O3)c12 (stereo unspecified)   > 100 µM
3  CCP(=O)(CC)C(Cl)(Cl)C(O)C(Cl)(Cl)Cl (stereo unspecified)   > 100 µM
4  Cc1cc(C(O)(c2ccc(Nc3ccccc3)cc2)c2ccc(Nc3ccc(S(=O)(=O)O)cc3)cc2)ccc1N (stereo unspecified)    2.58 µM
5  COC1=CC(=O)OC(/C=C(C)/C=C/C2=C(C)CCCC2(C)C)C1 (stereo unspecified)   > 100 µM
6  COc1cc(/C=C/C(=O)c2ccc(F)cc2)ccc1OCCCCCOc1cc2c(cc1OC)C(=O)N1CCCC1C=N2 (stereo unspecified)  0.0382 µM

* * *

In this section, each of the molecules is paired with its reported TGI.
# System: SK-MEL-5 melanoma
# ASSAY INFO: NCI tumour cell line growth inhibition, 48 h
ASSAY ENDPOINT: TGI

> print(dat)
                              smiles.string    subject.of.test  assay.endpoint   reading
1  Cc1cnc2c(c1)C(=O)N(c1ccc([N+](=O)[O-])cc1)S2(=O)=O  SK-MEL-5 melanoma             TGI  > 100 µM
2                  CCCCCCCc1cscc1-c1cscc1Br  SK-MEL-5 melanoma             TGI  > 100 µM
3  COc1cc2cc3c4cc(OC)c(OC)cc4cc[n+]3c(C)c2cc1OC  SK-MEL-5 melanoma             TGI  > 100 µM

* * *

// values below are reported TGI
# Test system: ACHN renal
# ASSAY INFO: NCI tumour cell line growth inhibition, 48 h
ASSAY ENDPOINT: TGI

> print(dat)
                              smiles.string    reading
1    N#Cc1c(-c2ccccc2)cc(-c2cccs2)c(C#N)c1N   > 100 µM
2  C=C(CN1CCN(c2ccccc2C(F)(F)F)CC1)c1ccc(C(=O)Nc2ccccc2N)cc1   > 100 µM
3  C/C1=C/C[C@@H](/C(C)=C/c2csc(C)n2)OC(=O)C[C@H](O)C(C)(C)C(=O)[C@H](C)[C@@H](O)[C@@H](C)CCC1   0.323 µM
4    O=C1Oc2cc3c(c4cccc1c24)OCN(c1ccccc1)C3   > 100 µM
5  O=C1Nc2ccccc2/C1=C\c1c(-c2ccccc2)nc2n1CCS2   > 100 µM
6  CC(=O)O[C@H]1CC[C@@]2(C)C(=CC[C@@H]3[C@@H]2CC[C@](C)(c2nnc(C)o2)[C@H]3CC#N)C1   > 100 µM
7  O=C(Cc1ccc(Nc2ccnc(C(F)(F)F)c2)cc1)N/N=C/c1ccccc1O  > 51.4 µM
8  CCOc1cc(/C=C/C(=O)C(C(=O)/C=C/c2ccc(OC(=O)CNc3nnc(C)s3)c(OCC)c2)C(=O)CNc2nnc(C)s2)ccc1OC(=O)CNc1nnc(C)s1    3.42 µM

* * *

# System: HCT-116 colon
# ASSAY INFO: NCI tumour cell line growth inhibition, 48 h
Consider the following molecules and their measured TGI readings.
ASSAY ENDPOINT: TGI

> print(dat)
                              smiles.string  subject.of.test   reading
1  c1ccc(-c2cc(-c3ccncc3)cc(-c3ccncc3)n2)cc1    HCT-116 colon  > 100 µM
2  COc1ccc(/C=C/C(=O)c2ccc(Nc3nc(Nc4ccc(F)cc4)nc(Nc4ccc(Cl)cc4)n3)cc2)cc1    HCT-116 colon  > 100 µM
3  CC(=O)O[C@H]1CC[C@@]2(C)C(=CC[C@@H]3[C@@H]2CC[C@](C)(c2nnc(C)o2)[C@H]3CC#N)C1    HCT-116 colon  > 100 µM
4         O=C1CCSc2nc(-c3ccc4c(c3)OCO4)nn21    HCT-116 colon   > 10 µM
5  N#Cc1ccc(C(C2C(=O)NC(=O)NC2=O)C2C(=O)NC(=O)NC2=O)cc1    HCT-116 colon  > 100 µM

* * *

# Tested on: OVCAR-8 ovarian
# ASSAY INFO: NCI tumour cell line growth inhibition, 48 h
// values below are reported TGI
ASSAY ENDPOINT: TGI

> print(dat)
                                    compound    reading
 1  CC(C)CC(NC=O)C(=O)NC(Cc1ccccc1)NC(=O)CNC(=O)C(C)NC(=O)C(N)Cc1ccc(O)cc1 (stereo not drawn)   > 100 µM
 2      COc1ccccc1NC(=O)C(=O)Cc1cnc2ccccc2n1   > 100 µM
 3  CC(=O)OCC1OC([Se-])C(OC(C)=O)C(OC(C)=O)C1OC(C)=O.N#CCC[PH+](CCC#N)CCC#N.[Au+] (stereo not drawn)  > 93.5 µM
 4  c1ccc2cc(CNCCCCNCCCNCc3ccc4ccccc4c3)ccc2c1     3.2 µM
 5  Cc1cnc2c(c1)C(=O)N(c1ccc([N+](=O)[O-])cc1)S2(=O)=O   > 100 µM
 6             CC(=O)N=c1ccc2nc(N)nn(O)c-2c1   > 100 µM
 7  O=C(CCN1CCC(CCO)CC1)Nc1ccc2c(c1)C(=O)c1ccc(NC(=O)CCN3CCC(CCO)CC3)cc1C2=O    61.6 µM
 8                  CCCCCCCc1cscc1-c1cscc1Br   > 100 µM
 9  O=C(Cc1ccc(Nc2ccnc(C(F)(F)F)c2)cc1)N/N=C/c1ccccc1O  > 69.4 µM
10  Cn1nc(-c2ccccc2)c2c(-c3ccccc3)c3cc(Cl)ccc3nc21   > 100 µM
11    N#Cc1c2ccccc2c2nnc3ccc(C(F)(F)F)cc3n12   > 100 µM
12            O=c1[nH]c2ccccc2n2cc3ccccc3c12    33.3 µM
13        Oc1c(Cl)c(Cl)c(O)c(CCNc2nccs2)c1Cl    47.2 µM

* * *

# Tested on: SK-MEL-5 melanoma
# ASSAY INFO: NCI tumour cell line growth inhibition, 48 h; in the data active = GI50 below about 0.43 µM; inactive = the rest
Possible outcomes: active, inactive

> print(dat)
                                   molecule    subject.of.test  category.label
1    O=Cc1ccc(-c2ccc(-c3ccc(C=O)o3)[se]2)o1  SK-MEL-5 melanoma        inactive
2  CCCCCCc1cc2cc(-c3csc(/C=C/c4ccccc4)n3)c(=O)oc2cc1O  SK-MEL-5 melanoma        inactive
3  CC(=O)OCC1OC([Se-])C(OC(C)=O)C(OC(C)=O)C1OC(C)=O.N#CCC[PH+](CCC#N)CCC#N.[Au+] (stereo not given)  SK-MEL-5 melanoma        inactive
4  O=C1c2cccnc2C(=O)c2c1c(C(=O)OCCc1ccccn1)c1ccccn21  SK-MEL-5 melanoma          active
5  O=C([O-])CCc1ccccc1.O=C([O-])CCc1ccccc1.O=C([O-])CCc1ccccc1.O=C([O-])CCc1ccccc1.[Mo+2].[Mo+2]  SK-MEL-5 melanoma        inactive
